molecular target: Adenosine receptor A3 (Homo sapiens) (UniProt P0DMS8); assay: Displacement of specific [125 I]AB-MECA binding at human Adenosine A3 receptor expressed in HEK cells; assay type: cell-based; conditions: HEK293
metric-name: pKi

[1] CCOC(=O)c1c(C)nc(C2CCC2)c(C(=O)OCc2ccccc2)c1C#Cc1ccccc1
[2] CCCOC(=O)c1c(-c2ccccc2)nc(CC)c(C(=O)SCC)c1CC
For 1 and 2 , which recorded pKi is lower? Lab note: record the label of whichever item you select.
1
(1: 5.62, 2: 8.08)

---

organism: Rattus norvegicus; assay: Ratio of binding affinities for rat A1 receptor against human A3 receptor, [Ki(rA1) / Ki (hA3)].
metric-name: Ratio

What value of Ratio has been reported for the following compound? CCCOC(=O)c1c(-c2ccccc2)nc(CC)c(C(=O)SCCO)c1CCC
210

How about this compound: CCOC(=O)c1c(-c2ccccc2)nc(CC)c(C(=O)SCC)c1CC
> 3000

Can you check CCCOC(=O)c1c(CCC)c(C(=O)SCC)c(CC)[n+](C)c1-c1ccccc1 next?
> 50

---

Target: Adenosine receptor A3 (Homo sapiens) (UniProt P0DMS8)
Sequence (whole entry): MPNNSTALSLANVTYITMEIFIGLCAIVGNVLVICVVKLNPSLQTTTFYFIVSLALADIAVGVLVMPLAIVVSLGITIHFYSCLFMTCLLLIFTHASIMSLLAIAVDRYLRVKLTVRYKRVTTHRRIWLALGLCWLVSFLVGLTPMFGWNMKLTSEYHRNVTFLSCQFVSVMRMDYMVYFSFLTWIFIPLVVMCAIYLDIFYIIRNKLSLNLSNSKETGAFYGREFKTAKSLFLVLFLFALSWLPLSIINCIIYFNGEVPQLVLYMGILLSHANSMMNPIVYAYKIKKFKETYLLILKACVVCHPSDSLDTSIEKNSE
Test: Displacement of specific [125 I]AB-MECA binding at human Adenosine A3 receptor expressed in HEK cells
Assay type: cell-based
Conditions: HEK293
metric-name: pKi

Please give the measured pKi for this compound: CCSC(=O)c1c(CC)nc(-c2ccccc2)c(C(=O)OCCF)c1CC
8.37

Another: CCOC(=O)c1c(-c2ccccc2)nc(CC)c2c1CCCNC2=O
5.7

Consider next the compound CCCOC(=O)c1c(C)nc(-c2ccccc2)c(C(=O)OCC)c1C in the same way.
6.67

Can you check CCOC(=O)c1c(-c2ccccc2)nc(CC)c(C(=O)O)c1CC next?
5.89

What do we get for CCOC(=O)c1c(-c2ccccc2)nc(C)c(C(=O)SCC)c1CC ?
7.37

Also need CCOC(=O)c1c(C2CCCC2)nc(CC)c(C(=O)SCC)c1CC , thanks.
5.47

Item: CCCOC(=O)c1c(-c2ccccc2)nc(CC)c(C(=O)SCCCF)c1CCC
7.08

And then CCCCCCSC(=O)c1c(CC)nc(-c2cccc(Cl)c2)c(C(=O)OCCC)c1CC , what is it?
6.66

Okay, and CCCc1c(C(=O)SCC)c(CC)nc(-c2ccccc2)c1C(=O)OCC(F)(F)C(F)(F)F ?
6.35

Also check CCOC(=O)c1c(C)nc(-c2ccccc2)c(C(=O)OCC)c1C(OC)OC
6.11

Same lookup for CCOC(=O)c1c(-c2ccccc2)nc(CC)c(C(=O)SCC)c1CCN1C(=O)c2ccccc2C1=O , please.
6.61

Similarly, CCCOC(=O)c1c(-c2ccccc2)nc(CC)c(C(=O)SCC)c1CCC ?
7.72
